test system: SF-539; test: NCI tumour cell line growth inhibition, 48 h
Active and inactive are the calls of the source. Cut-off read from the data, not from the text of the source: active = GI50 up to about 1.1 µM and inactive = higher.
Recorded GI50, one value per entry.

Worked examples follow.
• CCOC(=O)C(NC(=O)c1ccc(/N=N/N(C)C)cc1)C(C)C (stereo not given) = > 100 µM (inactive)
• C=C1C(=O)C23C(O)C1CCC2C12CO[C@]3(O)[C@@H](O)C1C(C)(C)CCC2O (stereo not given in full) = 14.7 µM (inactive)
• CCCCCCCSCC(O)COC(c1ccccc1)(c1ccccc1)c1ccccc1 (stereo not given) = > 100 µM (inactive)
• N=C(NNS(=O)(=O)c1ccccc1)Oc1ccc(Br)cc1Br = > 100 µM (inactive)

--- query ---
Need GI50 of COc1ccc(C(NS(=O)(=O)c2ccc(C)cc2)c2c(C(CBr)OC)c3ccccc3n2S(=O)(=O)c2ccccc2)cc1OC (stereo not given) , thanks.
> 100 µM (inactive)

====

test system: CAKI-1; assay: NCI tumour cell line growth inhibition, 48 h
Activity calls are given as the source filed them. Rule as the data show it: active = GI50 up to about 1.1 µM and inactive = higher.
Your answer must be one of the following: active, inactive

- O=[N+]([O-])c1ccc(-c2nn3c(C45CC6CC(CC(C6)C4)C5)nnc3s2)c(Cl)c1: inactive
- CSc1nc(-c2ccc(Cl)cc2)c(C#N)c(=O)n1C1OC(COC(C)=O)C(OC(C)=O)C(OC(C)=O)C1OC(C)=O (stereo unspecified): inactive
- COC(=O)CCCc1c(-c2[nH]c3ccccc3c2CCCC(=O)OC)[nH]c2ccccc12: inactive
- COc1cc2c(cc1OC)C(Cc1ccc(Oc3cc(CC4c5cc(OC)c(OC)cc5CCN4C)ccc3O)cc1)N(C)CC2 (stereo unspecified): inactive

Field: outcome | Entry: O=C1CCC2(c3ccccc3)Nc3ccc(Cl)cc3N12 (stereo unspecified)
inactive

Check the results log: what was the call for `Cc1cccc2c(O)c3c(O)cc(O)cc3nc12` ?
inactive

What did this assay record as the result for CCOC(=O)NC(NC(C)CC)(C(F)(F)F)C(F)(F)F (stereo unspecified) ?
inactive

====

// GI50 lookup, one value per entry
test system: XF498; test: NCI tumour cell line growth inhibition, 48 h
Calls of active or inactive are those of the source. Cut-off read from the data, not from the text of the source: active = GI50 up to about 1.1 µM and inactive = higher.

Here's what some known entries look like.
• CC(C)(C)S(=O)OC12CC3CC(CC(C3)C1)C2 (stereo not given) = > 100 µM (inactive)
• NC1=Nc2ccccc2Sc2ccccc21 = 52.1 µM (inactive)
• CC/C(=N/O)C(C)C(=O)CCC(=O)Nc1ccc(Cl)cc1 (stereo not given) = > 100 µM (inactive)
• OC1CC1Sc1ccccc1 (stereo not given) = 79.8 µM (inactive)

What value of GI50 has been recorded for this entry: `O=C(Nc1ccc(Sc2ccc(/N=N/c3c(O)c(S(=O)(=O)O)cc4cc(S(=O)(=O)O)ccc34)cc2)cc1)c1ccc(/N=N/c2c(O)c(S(=O)(=O)O)cc3cc(S(=O)(=O)O)ccc23)cc1`
36.4 µM (inactive)

====

system: NCI-H23; experiment: NCI tumour cell line growth inhibition, 48 h
Active and inactive are the calls of the source. Rule as the data show it: active = GI50 up to about 1.1 µM and inactive = higher.
# GI50 annotations

I have this compound here, `Cn1c2cc([N+](=O)[O-])ccc2c(=O)c2c(O)cc3c(c21)C=CC(C)(C)O3` , and I need its recorded GI50.
63.4 µM (inactive)

# lookup: GI50 of `NC1=NS(=O)(=O)Nc2nc(-c3cccs3)[nH]c21`
> 100 µM (inactive)

What does the data say about its GI50? Entry: `CC(=O)/C(=C/NC(=S)N/N=C1\C(=O)Nc2ccccc21)C(=O)Nc1ccccc1C`
> 100 µM (inactive)

Look up GI50: `CC(=O)Nc1oc(C)c(C)c1S(=O)(=O)c1ccc(Cl)cc1`
43.3 µM (inactive)

Find the recorded GI50 belonging to C#CC1(O)CCC2[C@@H]3CCc4cc(Oc5nc(F)nc(-c6c7ccccc7cn6C)n5)ccc4C3CC[C@@]21C (stereo partly specified) and report it.
> 100 µM (inactive)

Entry OC1CC1Sc1ccccc1 (stereo unspecified) has what GI50?
35.6 µM (inactive)

====

// reported GI50 for each item listed
tested on: PC-3; experiment: NCI tumour cell line growth inhibition, 48 h
Activity calls are given as the source filed them. Rule as the data show it: active = GI50 up to about 1.1 µM and inactive = higher.

Check out these entries, answers already filled in.
* CC(=O)c1cccc(NC(=O)C(=O)c2c(O)oc3ccccc3c2=O)c1 | > 100 µM (inactive)
* NN/C(=N\S(=O)(=O)c1ccc(-c2ccccn2)s1)Nc1ccc(Cl)cc1 | > 100 µM (inactive)
* COc1cc(C[S+]([O-])c2ccc(O)cc2)cc(OC)c1OC (centres undefined) | > 100 µM (inactive)
* CCN(CC)c1nnc(CCCCCCCCc2nnc(N(CC)CC)o2)o1 | > 100 µM (inactive)

Looking for the measured GI50 of `O=[N+]([O-])c1ccc2sc(/C=N/c3ccc(O)cc3)cc2c1` , can you help?
29.6 µM (inactive)

====

system: SK-MEL-28; experiment: NCI tumour cell line growth inhibition, 48 h
The source made the active and inactive calls. No stated cut-off is given here; in the data, active = GI50 up to about 1.1 µM and inactive = higher.
Measured Attribute: GI50

Please review the following examples before continuing.
• CC(=O)/C(=C/NC(=S)N/N=C1\C(=O)Nc2ccccc21)C(=O)Nc1ccccc1C = > 100 µM (inactive)
• CC1=NN(c2ccc(S(=O)(=O)O)cc2)C2(C1)SCC(=O)N2c1nc2ccccc2s1 (stereo not drawn) = > 100 µM (inactive)
• CN(C)c1n2c3cc([N+](=O)[O-])ccc3[n+]3c(N(C)C)n4ccccc4c3c2c2cccc[n+]12.[O-][Cl+3]([O-])([O-])[O-].[O-][Cl+3]([O-])([O-])[O-] = > 100 µM (inactive)
• COC1OC2=CCC3C(=O)NC(=O)C3C2[C@H](OCc2ccccc2)C1OCc1ccccc1 (stereo partly drawn) = 1.84 µM (inactive)
• Cc1ccc(S(=O)(=O)NC(=O)NCCC(=O)O)cc1 = > 100 µM (inactive)

// map CC(=O)OC1CCC2(C)C(=CCC3C4CCC5(OC6CC(C)CN(C(C)=O)C6C5C)C(C)=C4C(=O)C32)C1 (stereo not drawn) to recorded GI50 (system: SK-MEL-28)
> 100 µM (inactive)

# query: GI50 | item `Cc1c(C(=O)/C=C/c2ccccc2[N+](=O)[O-])[n+]([O-])c2ccccc2[n+]1[O-]` | system: SK-MEL-28
11.7 µM (inactive)

Short answer please: GI50, SK-MEL-28, entry `CS(=O)(=O)OCCN(CCOS(C)(=O)=O)c1ccc(/C=N/N=c2/nc[nH]c3nc[nH]c23)cc1`
19.3 µM (inactive)

====

tested on: HOP-62; assay: NCI tumour cell line growth inhibition, 48 h
Activity calls are given as the source filed them. Cut-off read from the data, not from the text of the source: active = GI50 up to about 1.1 µM and inactive = higher.
Catalogue of compounds with associated GI50

- O=[N+]([O-])c1ccc(-c2nn3c(C45CC6CC(CC(C6)C4)C5)nnc3s2)c(Cl)c1: > 100 µM (inactive)

Which GI50 is reported for this compound? `Cn1c(=O)c2nc(CCCCC(=O)O)[nH]c2n(C)c1=O`
> 100 µM (inactive)

Look up GI50: `O=C(N/C(=C\c1ccc(/C=C(\NC(=O)c2ccccc2)c2nc3cc([N+](=O)[O-])ccc3[nH]2)cc1)c1nc2cc([N+](=O)[O-])ccc2[nH]1)c1ccccc1`
> 100 µM (inactive)

GI50 for COc1ccc(/C=C2/C(=O)C(c3ccccc3)N(c3ccccc3)C2=O)cc1OC (stereo not given) ?
> 10 µM (inactive)

If you can, please state the reported GI50 value of O=C(O)CNC(=O)C(CSC(=O)OCC1c2ccccc2-c2ccccc21)NC(=O)CCC(NC(=O)OCC1c2ccccc2-c2ccccc21)C(=O)O (stereo not given) .
14.2 µM (inactive)

====

tested on: PC-3; test: NCI tumour cell line growth inhibition, 48 h
Active and inactive are the calls of the source. Rule as the data show it: active = GI50 up to about 1.1 µM and inactive = higher.
Each entry below lists one item and its recorded GI50 value.

// solved cases for GI50 follow
- Cn1c(=O)cc(/N=N\c2ccc(Cl)c(Cl)c2)[nH]c1=O: 23.3 µM (inactive)
- CCC(CCC(C)C1CCC2C3CC=C4CC(OC5OC(CO)C(O)C(O)C5O)CCC4(C)C3CCC12C)C(C)C (stereo not given): > 100 µM (inactive)
- COC(=O)/C=C/COCC1C2CCC(=O)C21 (stereo not given): > 100 µM (inactive)
- NC(=O)c1cc2cc(Cl)cc(Cl)c2o/c1=N\c1ccc(F)cc1: 19.1 µM (inactive)

Now, please, on to the next molecule.
State its GI50 on PC-3: O=C(O)C(F)(OC(F)(F)C(F)(OC(F)(F)C(F)(F)C(F)(F)F)C(F)(F)F)C(F)(F)F (stereo not given)
59.7 µM (inactive)

====

// GI50 lookup, one value per entry
system: OVCAR-4; assay: NCI tumour cell line growth inhibition, 48 h
Calls of active or inactive are those of the source. No stated cut-off is given here; in the data, active = GI50 up to about 1.1 µM and inactive = higher.

Please review the following examples before continuing.
* CC(C)C1CC(CO)(CNc2cc(Cl)nc(N)n2)C1 (stereo not given) | 20.7 µM (inactive)
* COC(=O)Cc1cccc2c1CCC2=O | > 100 µM (inactive)
* COc1ccc2nc(NC(=O)C(=O)C(C#N)c3ccc(CC#N)cc3)sc2c1 (stereo not given) | > 100 µM (inactive)
* c1ccc2c(c1)Sc1ccccc1N2CCCN1c2ccccc2Sc2ccccc21 | 36.1 µM (inactive)

Now examine the next entry.
GI50 lookup needed for `CC(=O)c1cccc(NC(=O)C(=O)c2c(O)oc3ccccc3c2=O)c1` , thanks.
> 100 µM (inactive)
